Values were extracted from the antibiotic and cytotoxicity screens of Wong et al. (2023).

# Test system: HSkMC
# assay-text: cytotoxicity call (relative viability < 0.9)
# condition-description: 10 µM
Out of some 39,000 compounds screened, about 1,500 (3.8%) were called active. The entries come from a sample that favours actives as a whole.
Lab note: assign the record to one of 1.0 (active), 0.0 (inactive)

See these solved cases before continuing.
molecule	class-label
C[C@H]1CCCCO[C@H](CN(C)S(=O)(=O)c2ccc(Cl)cc2)[C@@H](C)CN([C@@H](C)CO)C(=O)c2cc(NS(=O)(=O)c3ccc(Cl)cc3)ccc2O1	0.0
NS(=O)(=O)OC[C@H]1C[C@@H](Nc2ccnc3cc(-c4cccc(SC(F)(F)F)c4)nn23)[C@H](O)[C@@H]1O	1.0
C[C@H]1CN([C@@H](C)CO)C(=O)c2cccc(NC(=O)Nc3ccc(C(F)(F)F)cc3)c2O[C@@H]1CN(C)C(=O)NC1CCCCC1	1.0
C[C@@H]1CN([C@@H](C)CO)C(=O)c2cccc(NC(=O)Nc3ccc(C(F)(F)F)cc3)c2O[C@@H]1CN(C)C(=O)NC1CCCCC1	0.0
Clc1ccc(C(Cn2ccnc2)OCc2ccsc2Cl)c(Cl)c1 (centres undefined)	0.0

Given "Cc1noc(C)c1S(=O)(=O)N(C)C[C@@H]1OCCCC[C@@H](C)Oc2ccc(NS(C)(=O)=O)cc2C(=O)N([C@@H](C)CO)C[C@@H]1C" , state the outcome it received in this test.
0.0

Recorded test outcome, item "COc1ccccc1CNC(=O)C[C@@H]1C[C@@H]2c3cc(NC(=O)Nc4ccc(C(F)(F)F)cc4)ccc3O[C@@H]2[C@@H](CO)O1"
0.0

Which result was noted for this molecule in the test: "C[C@@H]1CN([C@@H](C)CO)C(=O)c2cc(NC(=O)Nc3ccc(C(F)(F)F)cc3)ccc2O[C@@H]1CN(C)C(=O)Nc1ccc2c(c1)OCO2"
1.0

Entry "C[C@H]1CN([C@@H](C)CO)C(=O)c2cccc(NC(=O)Nc3ccc(C(F)(F)F)cc3)c2O[C@H]1CN(C)C(=O)NC1CCCCC1" : call = ?
0.0

So what was the verdict on "Clc1ccc(C(c2ccc(Cl)cc2)[n+]2ccn(C[C@@H](OCc3ccc(Cl)cc3Cl)c3ccc(Cl)cc3Cl)c2)cc1" in this test?
1.0

Each molecule tested received a call. Report the one for Clc1ccc(COC(Cn2ccnc2)c2ccc(Cl)cc2Cl)c(Cl)c1.O=[N+]([O-])O (centres undefined) .
0.0

Look up the recorded call for "C[C@H]1CN([C@@H](C)CO)C(=O)c2cc(NC(=O)Nc3ccc4c(c3)OCO4)ccc2O[C@@H]1CN(C)C(=O)Nc1ccc(C(F)(F)F)cc1" in this test.
0.0

Please indicate how the test categorized "C[C@H](CO)N1C[C@H](C)[C@H](CN(C)C(=O)NC2CCCCC2)Oc2c(NC(=O)Nc3ccc(C(F)(F)F)cc3)cccc2C1=O" .
0.0

Write down the call the test reported for this molecule. Item: "COc1ccc(-c2ccc3c(c2)O[C@H](CN(C)CC2CCOCC2)[C@H](C)CN([C@H](C)CO)S3(=O)=O)cc1"
0.0

* * *

# Test system: HSkMC
# assay-text: cytotoxicity call (relative viability < 0.9)
# condition-description: 10 µM
In all, about 39,000 compounds went through this assay and about 1,500 (3.8%) were called active. Shown is part of a subset that was picked to be rich in actives.
A correct response names exactly one class from Y (active), N (inactive)

Known results for compounds:
structure-notation	class-label
COc1ccc(CN(C)C[C@H]2Oc3ccc(NC(=O)Nc4ccc(C(F)(F)F)cc4)cc3CC(=O)N([C@H](C)CO)C[C@H]2C)cc1	Y
COC(=O)C[C@H]1CC[C@@H]2[C@H](COC[C@H](O)CN2S(=O)(=O)c2cn(C)cn2)O1	N
Cl.Cl.O=C1c2c(O)ccc(O)c2C(=O)c2c(NCCNCCO)ccc(NCCNCCO)c21	Y

Please indicate how the test categorized "CC(C)NC(=O)N(C)C[C@H]1Oc2cc(-c3ccccc3F)ccc2S(=O)(=O)N([C@H](C)CO)C[C@H]1C" .
N

Name the outcome recorded for "C[C@@H]1CN([C@H](C)CO)C(=O)c2cc(NC(=O)Cc3ccccc3)ccc2O[C@@H]1CN(C)C(=O)Nc1ccc(C(F)(F)F)cc1" in the assay.
N

Could you kindly confirm the outcome this assay logged for "COc1ccc(NC(=O)Nc2ccc3c(c2)CC(=O)N([C@@H](C)CO)C[C@@H](C)[C@@H](CN(C)Cc2ccc(C(F)(F)F)cc2)O3)cc1" ?
N

* * *

# Tested on: HSkMC
# assay-text: cytotoxicity call (relative viability < 0.9)
# condition-description: 10 µM
The campaign covered roughly 39,000 compounds. About 1,500 (3.8%) were called active. This excerpt belongs to a sample that is enriched for actives.
Respond only with the outcome that fits, drawn from 1 = active, -1 = inactive

molecule	class-label
Cc1ccc(C(=O)Nc2cccc(C(F)(F)F)c2)cc1Nc1nc(-c2cccnc2)nc2c1cnn2C	-1
Cc1ncc(NC(=O)c2ccc(CN3CCN(C)CC3)c(C(F)(F)F)c2)cc1Nc1nccc(-c2cccnc2)n1	-1
COc1ccc(S(=O)(=O)N(C)C[C@@H]2OCCCC[C@H](C)Oc3ccc(NS(=O)(=O)c4cn(C)cn4)cc3C(=O)N([C@H](C)CO)C[C@@H]2C)cc1	-1
CC(C)(N)c1cn(C2CCN(C(=O)C3CCC(C(C)(C)C)CC3)CC2)nn1 (centres undefined)	-1
Cc1ccc(S(=O)(=O)Nc2ccc3c(c2)C(=O)N([C@H](C)CO)C[C@H](C)[C@H](CN(C)S(C)(=O)=O)OCCCC[C@@H](C)O3)cc1	-1

How did this test come out for "CO[C@H](CN(C)C(=O)c1ccc2c(c1)OCO2)[C@@H](C)CN([C@H](C)CO)S(=O)(=O)c1ccc(C)cc1" ?
-1

Dear colleague, could you share the recorded outcome for "COc1cccc(S(=O)(=O)N(C)C[C@H]2Oc3cc(Br)ccc3S(=O)(=O)N([C@@H](C)CO)C[C@H]2C)c1" when you have a moment?
-1

* * *

# Tested on: HSkMC
# assay-text: cytotoxicity call (relative viability < 0.9)
# condition-description: 10 µM
Hit rate of the full screen: of about 39,000 compounds, about 1,500 (3.8%) were called active. The full list was thinned out, with actives kept by preference.
Valid outcomes are listed here; reply with one: label 1 for active, label 0 for inactive

Previously resolved entries follow.
structure-notation	class-label
C[C@@H]1CN([C@@H](C)CO)C(=O)c2cccc(NC(=O)Nc3ccc(C(F)(F)F)cc3)c2O[C@@H]1CN(C)Cc1ccccc1	label 0
C[C@@H]1CN([C@H](C)CO)C(=O)c2cc(NC(=O)Nc3ccccc3)ccc2O[C@H]1CN(C)Cc1ccc(Oc2ccccc2)cc1	label 0
C[C@H](CO)N1C[C@H](C)[C@@H](CN(C)Cc2ccc(C(F)(F)F)cc2)OCCCC[C@H](C)Oc2ccc(NC(=O)NC3CCCCC3)cc2C1=O	label 1

I'd appreciate the recorded outcome for "NS(=O)(=O)c1ccc(N2CCCC2=O)cc1" from this test.
label 0

* * *

# System: HSkMC
# assay-text: cytotoxicity call (relative viability < 0.9)
# condition-description: 10 µM
The campaign covered roughly 39,000 compounds. About 1,500 (3.8%) were called active. Shown is part of a subset that was picked to be rich in actives.
Entry note: the call must match one of active, inactive

Answered examples (6):
molecule	tested-system	class-label
COc1cc(N2CCC(N)CC2)ccc1Nc1ncc(Cl)c(-c2c[nH]c3ccccc23)n1	HSkMC	active
C[C@@H]1CN([C@@H](C)CO)C(=O)c2cccc(NC(=O)c3ccc(-c4nccs4)cc3)c2O[C@H]1CN(C)Cc1ccc(C(F)(F)F)cc1	HSkMC	inactive
Cc1coc2c1C(=O)C(=O)c1c-2ccc2c1CCCC2(C)C	HSkMC	active
C=C(C)C(=O)N1CCC=CC1=O	HSkMC	active
C[C@H]1CN([C@@H](C)CO)C(=O)c2cccc(NC(=O)c3ccc(-c4nccs4)cc3)c2O[C@@H]1CN(C)Cc1ccc(C(F)(F)F)cc1	HSkMC	active
Cc1cc(Nc2ncc(Cl)c(Nc3ccccc3S(=O)(=O)C(C)C)n2)c(OC(C)C)cc1C1CCNCC1	HSkMC	active

In this assay, the call recorded for COc1cc(C(=O)NC2CCN(C)CC2)ccc1Nc1ncc2c(n1)N(C1CCC(O)CC1)CCC(=O)N2C (configuration not stated) was what?
inactive

// outcome(item) with item = "C[C@@H]1CN([C@H](C)CO)C(=O)c2cccc(NC(=O)c3ccc(-c4nccs4)cc3)c2O[C@H]1CN(C)Cc1ccc(C(F)(F)F)cc1"
active

Any idea what this test logged for "C[C@@H]1CN([C@@H](C)CO)C(=O)c2cccc(NC(=O)c3ccc(-c4nccs4)cc3)c2O[C@@H]1CN(C)C(=O)Nc1ccc(C(F)(F)F)cc1" ?
inactive

* * *

# Test system: HSkMC (human skeletal muscle cells)
# assay-text: cytotoxicity call (relative viability < 0.9)
# condition-description: 10 µM
Screen size: about 39,000 compounds; about 1,500 (3.8%) were called active. Shown is part of a subset that was picked to be rich in actives.
Entry note: the call must match one of label 1 = active, label 0 = inactive

Study these solved cases before continuing.
structure-notation	tested-system	class-label
NC[C@H]1CC[C@H](C(=O)O)CC1	HSkMC	label 0
CC(C)(C)[S@@](=O)N1Cc2cc(C(=O)N3CCc4ccccc4C3)nc(-c3cccc(-c4ccncc4)c3)c2[C@H]1CCO	HSkMC	label 0
C[C@H](CO)N1C[C@H](C)[C@@H](CN(C)S(=O)(=O)c2ccc(Cl)cc2)Oc2c(NS(C)(=O)=O)cccc2C1=O	HSkMC	label 0
NCCNc1cccc2ccccc12	HSkMC	label 0
N=C(N)SCc1csc(N)n1	HSkMC	label 0

How did this test come out for "COCC(=O)N1[C@@H]2c3ccc(C4=CCCCC4)c(=O)n3C[C@@H]2[C@@H](CO)[C@@H]1C(=O)N1CCN(C)CC1" ?
label 0

In this assay, the call recorded for "C[C@H](CO)N1C[C@H](C)[C@H](CN(C)C(=O)Nc2ccc3c(c2)OCO3)Oc2c(NC(=O)C3CC3)cccc2C1=O" was what?
label 0

Hi, do you know how "Cc1ccc(S(=O)(=O)Nc2ccc3c(c2)CC(=O)N([C@@H](C)CO)C[C@@H](C)[C@H](CN(C)Cc2ccc(C(F)(F)F)cc2)O3)cc1" came out in this test?
label 0

Assay result, entry "Cc1ccc(S(=O)(=O)Nc2ccc3c(c2)CC(=O)N([C@H](C)CO)C[C@@H](C)[C@H](CN(C)Cc2ccc(C(F)(F)F)cc2)O3)cc1" — outcome?
label 0

In this assay, the call recorded for "c1ccc(CCNc2ccnc3cc4ccccc4cc23)cc1" was what?
label 1

Give the logged outcome of this assay for the following compound: "CCCNC(=O)N1C[C@@H](O)COC[C@H]2O[C@H](CC(=O)NCc3ccncn3)CC[C@@H]21"
label 0

What classification did "CC(/C=C/C(=O)NO)=C\c1ccccc1OC[C@@H]1[C@H]2C[C@H]3c4[nH]c5ccccc5c4CCN3C[C@@H]2CC[C@@H]1O" end up with in this test?
label 0

Give the logged outcome of this assay for the following compound: "C[C@H]1CN([C@@H](C)CO)C(=O)Cc2cc(NS(=O)(=O)c3cccs3)ccc2O[C@H]1CN(C)S(=O)(=O)c1cccs1"
label 0

Which outcome did this test record for the compound "C[C@@H]1CN([C@@H](C)CO)C(=O)CCCn2cc(nn2)CO[C@@H]1CN(C)C(=O)Nc1cccc(C(F)(F)F)c1" ?
label 0

Assay result, entry "C[C@H](CO)N1C[C@H](C)[C@H](CN(C)C(=O)c2ccncc2)OCCCC[C@H](C)Oc2ccc(NS(=O)(=O)c3cn(C)cn3)cc2C1=O" — outcome?
label 0

Please state the recorded outcome for this compound: "Cc1ccc(S(=O)(=O)Nc2ccc3c(c2)CC(=O)N([C@@H](C)CO)C[C@H](C)[C@H](CN(C)Cc2ccc(C(F)(F)F)cc2)O3)cc1"
label 1
